All values here come from ChEMBL document CHEMBL4610014.

TESTED SYSTEM: Aurora kinase C (Homo sapiens, UniProt Q9UQB9)
Sequence (Q9UQB9 whole entry): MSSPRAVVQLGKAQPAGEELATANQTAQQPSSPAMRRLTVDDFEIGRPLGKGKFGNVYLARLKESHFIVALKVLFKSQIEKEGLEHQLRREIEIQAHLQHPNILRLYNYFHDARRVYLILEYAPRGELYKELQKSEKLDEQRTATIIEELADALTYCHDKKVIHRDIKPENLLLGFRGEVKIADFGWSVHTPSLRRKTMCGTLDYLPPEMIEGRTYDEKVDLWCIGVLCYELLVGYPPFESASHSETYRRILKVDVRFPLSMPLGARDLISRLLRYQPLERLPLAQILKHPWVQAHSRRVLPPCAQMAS
pIC50: −log10 of the molar value.
RECORDED ENDPOINT: pIC50

| COMPOUND | RECORDED ENDPOINT | REPORTED |
| --- | --- | --- |
| c1nc2nc(Nc3ccc(N4CCOCC4)cc3)nc(NC3CCCCC3)c2[nH]1 [REVERSINE] | pIC50 | 6.40 |

====

TESTED SYSTEM: Aurora kinase A (Homo sapiens)
Sequence (O14965 whole entry): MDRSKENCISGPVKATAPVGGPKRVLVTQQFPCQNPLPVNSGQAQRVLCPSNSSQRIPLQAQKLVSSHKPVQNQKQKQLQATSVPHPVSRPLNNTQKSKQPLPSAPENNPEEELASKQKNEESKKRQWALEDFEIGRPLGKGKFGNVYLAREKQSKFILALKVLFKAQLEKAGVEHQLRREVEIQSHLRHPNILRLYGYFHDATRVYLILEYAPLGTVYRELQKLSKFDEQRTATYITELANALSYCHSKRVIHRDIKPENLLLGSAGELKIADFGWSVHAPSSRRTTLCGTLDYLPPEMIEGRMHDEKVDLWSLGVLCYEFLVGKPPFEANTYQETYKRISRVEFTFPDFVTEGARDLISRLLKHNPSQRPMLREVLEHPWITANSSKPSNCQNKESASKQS

| CPD SMILES | TESTED SYSTEM | IC50 |
| --- | --- | --- |
| O=C(Cc1ccc(Nc2nccc(NC3CCCC3)n2)cc1)NC1CCCCC1 | Aurora kinase A (Homo sapiens) | 309 nM |
